Test system: B16 melanoma ip, C57BL/6 mice, median survival T/C
Assay: NCI In Vivo Anticancer Drug Screen. Data for tumor model B16 Melanoma (intraperitoneal) in C57BL/6 mice
Settings: endpoint: median survival time; dose: 125.0 mg/kg/injection; schedule: Q01DX009 (ip); vehicle: saline; higher = longer survival
Toxic doses and inconclusive results are not listed.
measurement_type: T/C

structure_smiles_string	measurement_type	result
O=c1[nH]c(=O)c2n[nH]nc2[nH]1	T/C	100 % of control
CCOC(=O)n1cnc2ncnc(SC)c21	T/C	100 % of control
C=CCN(CC=C)c1ncnc2[nH]ncc12	T/C	102 % of control
CC(C)=CCC/C(C)=C/CO	T/C	86 % of control

Now examine the next entry.
Using known records, supply T/C for CCOC(N)=O
100 % of control

* * *

Tested on: B16 melanoma ip, C57BL/6 mice, median survival T/C
Test: NCI In Vivo Anticancer Drug Screen. Data for tumor model B16 Melanoma (intraperitoneal) in C57BL/6 mice
Conditions: endpoint: median survival time; dose: 12.5 mg/kg/injection; schedule: Q01DX009 (ip); vehicle: saline; higher = longer survival
Toxic doses and inconclusive results are not listed.
# T/C annotations

structure_smiles_string	result
C[C@]12C=CC(=O)C=C1CC[C@@H]1[C@@H]2C(=O)C[C@@]2(C)[C@H]1CC[C@]2(O)C(=O)CO	100 % of control
O=C1CN=C(c2ccc[nH]2)c2cc(Cl)ccc2N1	107 % of control

Next compound, please.
Check the records and state T/C for Cn1c(=O)c2ncnnc2n(C)c1=O
103 % of control

* * *

Entries and their measured T/C follow.
Tested on: B16 melanoma ip, C57BL/6 mice, median survival T/C
Experiment: NCI In Vivo Anticancer Drug Screen. Data for tumor model B16 Melanoma (intraperitoneal) in C57BL/6 mice
Settings: endpoint: median survival time; dose: 50.0 mg/kg/injection; schedule: Q01DX009 (ip); vehicle: saline; higher = longer survival
Toxic doses and inconclusive results are not listed.

Please review the entries below; each comes with its answer.
compound	T/C
COc1cc(/C=N\O)nc(-c2ccccn2)c1	106 % of control
COc1cc(C[C@H]2c3cc(OC)c(OC)cc3CCN2C)c(Oc2cc3c(cc2OC)-c2c(OC)c(OC)cc4c2[C@H](C3)N(C)CC4)cc1OC	96 % of control
NC(=O)Oc1cc(OC(N)=O)cc(N(CCCl)CCCl)c1	123 % of control

Quickly give me recorded T/C for CCc1nc(N)nc(N)c1-c1ccc(Cl)cc1
100 % of control

Tell me its T/C given CNNCc1ccc(C(=O)NC(C)C)cc1 as the entry.
121 % of control

Query T/C for COc1cc2c(cc1OC)C(c1cc(OC)c(OC)c(OC)c1)C1(O)C(=O)OCC1(O)C2 (stereo not drawn)
93 % of control

Entry CC(Cc1ccc(O)c(O)c1)C(C)Cc1ccc(O)c(O)c1 (stereo not drawn) needs its T/C filled in; supply it.
103 % of control

Identify T/C associated with the compound CN(C)/N=N/c1nc[nH]c1C(N)=O
120 % of control

* * *

Tested on: B16 melanoma ip, C57BL/6 mice, median survival T/C
Test: NCI In Vivo Anticancer Drug Screen. Data for tumor model B16 Melanoma (intraperitoneal) in C57BL/6 mice
Conditions: endpoint: median survival time; dose: 25.0 mg/kg/injection; schedule: Q01DX009 (ip); vehicle: saline; higher = longer survival
Toxic doses and inconclusive results are not listed.
measurement_type: T/C

compound	measurement_type	result
O=C1CN=C(c2ccc[nH]2)c2cc(Cl)ccc2N1	T/C	105 % of control
CS(=O)(=O)OCCCCOS(C)(=O)=O	T/C	103 % of control
O=P1(N(CCCl)CCCl)NCCCO1 (centres undefined)	T/C	93 % of control

Moving on to another compound below.
Please give measured T/C of the following entry: CCc1nc(N)nc(N)c1-c1ccc(Cl)cc1
96 % of control
